Tested on: OVCAR-5
Test: NCI tumour cell line growth inhibition, 48 h
Activity calls are given as the source filed them. Cut-off read from the data, not from the text of the source: active = GI50 up to about 1.1 µM and inactive = higher.
parameter measured: GI50

{"compound": "O=c1cnn(C/C=C/CBr)c(=O)[nH]1", "tested system": "OVCAR-5", "GI50": "17.4 µM (inactive)"}
{"compound": "CN1CCN(CCCNN)CC1", "tested system": "OVCAR-5", "GI50": "> 100 µM (inactive)"}

What does the data say about its GI50? Entry: `C/C=C/C[C@@H](C)[C@@H](O)[C@H]1C(=O)N[C@@H](CC)C(=O)N(C)CC(=O)N(C)[C@@H](CC(C)C)C(=O)N[C@@H](C(C)C)C(=O)N(C)[C@@H](CC(C)C)C(=O)N[C@@H](C)C(=O)N[C@H](C)C(=O)N(C)[C@@H](CC(C)C)C(=O)N(C)[C@@H](CC(C)C)C(=O)N(C)[C@@H](C(C)C)C(=O)N1C`
6.93 µM (inactive)

What does the data say about its GI50? Entry: CCCCCC/C=C1\CCC(CN(C)C)C1=O (stereo not given)
16.9 µM (inactive)

What does the data say about its GI50? Entry: Cc1ccc(CC2(C(=O)O)Cc3ccc(C)cc3C2)cc1 (stereo not given)
> 100 µM (inactive)
